Cited source for all entries: patent US9512139B2

experiment: Pharmacokinetic study after single i.v. and p.o. administration in male SD rats; type: in vivo; conditions: male, SD, plasma; rat, po, 5 mg/kg
molecules and their reported Cmax
// note: answer is a bare numeric in ng/mL

Record excerpt, results attached:
[
  {
    "molecule": "CN1CCC[C@H](N)C(=O)N2C[C@@H](OCc3ccccc3)C[C@H]2COc2cccc(c2)C1=O [Ex. 568]",
    "unit.spec": "ng/mL",
    "Cmax": 64.3
  },
  {
    "molecule": "CN1CCC[C@H](N)C(=O)N2C[C@@H](Oc3ccccc3)C[C@H]2COc2cccc(c2)C1=O [Ex. 561]",
    "unit.spec": "ng/mL",
    "Cmax": 67
  }
]

Now consider the entry below.
Lookup: Kindly indicate its recorded Cmax. Item: CN1CCC[C@H](NC(=O)CC(C)(C)C)C(=O)N2C[C@@H](O)C[C@H]2COc2cccc(c2)C1=O [Ex. 571]
Found: 340

----------
target: Prostaglandin F (FP) Receptor (Homo sapiens, UniProt P43088); construct: host or cells: Ca2+ optimized hematopoietic cell lines (rat); experiment: Ca2+ assay (FLIPR) for the GPCR prostaglandin F (FP) receptor, agonist and antagonist mode; type: cell-based
Sequence (P43088 whole entry): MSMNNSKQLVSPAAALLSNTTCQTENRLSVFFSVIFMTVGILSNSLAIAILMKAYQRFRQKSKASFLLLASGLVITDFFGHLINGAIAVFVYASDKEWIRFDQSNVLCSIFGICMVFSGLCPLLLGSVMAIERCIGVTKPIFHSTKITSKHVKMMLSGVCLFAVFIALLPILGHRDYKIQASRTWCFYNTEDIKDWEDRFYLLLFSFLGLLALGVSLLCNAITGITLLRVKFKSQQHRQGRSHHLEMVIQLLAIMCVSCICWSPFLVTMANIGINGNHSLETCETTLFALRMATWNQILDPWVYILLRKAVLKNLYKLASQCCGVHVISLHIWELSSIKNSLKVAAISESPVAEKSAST
molecules and their reported pIC50
Would you please state pIC50, meaning minus log10 of the concentration in mol/L, as a bare number?

[
  {
    "smiles.representation": "CN1CCC[C@H](NC(=O)CCCCCc2ccccc2)C(=O)N2C[C@@H](NC(=O)Cc3ccc4ccccc4c3)C[C@H]2COc2cccc(c2)C1=O",
    "property.name": "pIC50",
    "recorded.result": 6.23
  },
  {
    "smiles.representation": "CCCCCC/C=C/CC(=O)N[C@H]1CCCN(C)C(=O)c2cccc(c2)OC[C@@H]2C[C@H](NC(=O)Cc3ccc4ccccc4c3)CN2C1=O",
    "property.name": "pIC50",
    "recorded.result": 6.31
  },
  {
    "smiles.representation": "CN1CCC[C@H](NC(=O)Cc2ccc3ccccc3c2)C(=O)N2C[C@@H](NC(=O)Nc3cccc(N(C)C)c3)C[C@H]2COc2cccc(c2)C1=O",
    "property.name": "pIC50",
    "recorded.result": 6.37
  },
  {
    "smiles.representation": "CN1CCC[C@H](NC(=O)Cc2cccc3ccccc23)C(=O)N2C[C@@H](NC(=O)Nc3cccc(N(C)C)c3)C[C@H]2COc2cccc(c2)C1=O",
    "property.name": "pIC50",
    "recorded.result": 6.92
  }
]

Lookup: Under Prostaglandin F (FP) Receptor (Homo sapiens, UniProt P43088), report pIC50 for CN1CCC[C@H](NC(=O)Cc2ccc3ccccc3c2)C(=O)N2C[C@@H](NC(=O)Cc3ccc4ccccc4c3)C[C@H]2COc2cccc(c2)C1=O
Found: 5.92

----------
assay: Metabolic stability assay, CD-1 mouse microsomes; format: in vitro ADME; settings: both sexes, CD-1, mouse, microsomes
property.name: half-life at 10 µM (min)
// note: answer is a bare numeric in min

Record excerpt, results attached:
[
  {
    "molecule": "CN1CCC[C@H](NC(=O)Cc2cccc(-c3ccccc3)c2)C(=O)N2C[C@@H](NC(=O)Nc3cccc(N(C)C)c3)C[C@H]2COc2cccc(c2)C1=O [Ex. 525]",
    "half-life at 10 µM (min)": 25
  },
  {
    "molecule": "CC(C)CN[C@H]1C[C@H]2COc3cccc(c3)C(=O)N(C)[C@H](C(=O)NCc3ccc4ccccc4c3)COCC(=O)N2C1 [Ex. 373]",
    "half-life at 10 µM (min)": 36
  }
]

Now consider the entry below.
Lookup: Kindly indicate its recorded half-life at 10 µM. Item: CCN(CC)[C@@H]1C[C@H]2COc3ccc(cc3)C(=O)N(C)[C@H](C(=O)NCc3ccc4ccccc4c3)CCC(=O)N(C)CC(=O)N2C1 [Ex. 262]
Found: 23
